Consider the following compounds and their measured growth readings.
Test system: U251 CNS
method description: NCI-60 one-dose screen, 48 h (100 = growth as untreated, 0 = no growth, -100 = all killed)
applied conditions: 10 µM unless noted
The panel holds about 83,000 compounds, 20% with a hit somewhere; the sample as a whole holds those more often.

compound: Cc1ccc(N=CNN=C(N)N)cc1
system under test: U251 CNS
growth / %: 97.2

compound: COc1ccc2c(c1)CCCC21C(=O)Nc2c(Cl)cccc21 (stereo not drawn)
system under test: U251 CNS
growth / %: 54.1

compound: O=C(N=Nc1c(Cl)c(O)c2ccccc2c1O)C(=O)Nc1cccc(C(F)(F)F)c1
system under test: U251 CNS
growth / %: 74.6

compound: COc1ccc(NC(=O)/C=C/c2ccc(Cl)c(Cl)c2)cn1
system under test: U251 CNS
growth / %: 87.4

compound: COc1cc2nccc(Oc3ccc(NC(=O)C4(C(=O)Nc5ccc(F)cc5)CC4)cc3)c2cc1OC(=O)c1ccc(N)cc1
system under test: U251 CNS
growth / %: 7.81

compound: CNCc1cccc2c1OCCOCCOCCC(C)S(=O)(=O)c1ccc(cc1)-c1cnc(N)c(n1)C(=O)N2 (stereo not drawn)
system under test: U251 CNS
growth / %: 19.2

compound: O=[N+]([O-])c1cc(F)c2cccnc2c1O
system under test: U251 CNS
growth / %: 91.9

compound: O=C(Nc1ccc2ncnc(Nc3ccc(F)c(Cl)c3)c2c1)c1cccs1
system under test: U251 CNS
growth / %: 54.7

compound: CCCCCCCCCCCCCCCC1=NCC[N+]1(CCO)CCO
system under test: U251 CNS
growth / %: 39.4

compound: Oc1[nH]c2ccc(Cl)cc2c1/C=c1/ccc2c(c1)N=C(c1ccc(F)cc1)N=2
system under test: U251 CNS
growth / %: 72

compound: O=c1[nH]c2ccccc2n2cc3cccnc3c12
system under test: U251 CNS
growth / %: 76.6

compound: COc1cc(/C=C/C(=O)c2ccc(NC(=O)CSc3nnc(-c4ccc(Cl)cc4)n3-c3ccccc3)cc2)cc(OC)c1OC
system under test: U251 CNS
growth / %: 69.7

compound: Cc1cc(C)cc(NC(=O)Cn2nncc2CN2C(=O)CSC2=O)c1
system under test: U251 CNS
growth / %: 102

compound: CCC(=O)NC(O)C(Cl)(Cl)C(C)Cl (stereo not drawn)
system under test: U251 CNS
growth / %: 98.6

compound: CCCCNCC(O)c1cc2c(Cl)cc(Cl)cc2c2cc(C(F)(F)F)ccc12 (stereo not drawn)
system under test: U251 CNS
growth / %: -95.5

compound: Cc1cc(NC(=O)c2ccc(N)cc2)ccc1N=Nc1ccc2cc(S(=O)(=O)O)cc(S(=O)(=O)O)c2c1
system under test: U251 CNS
growth / %: 92.9

compound: COCCCNCC(=O)Nc1c(C)cccc1C
system under test: U251 CNS
growth / %: 104

compound: CC(=O)N1N=C(c2ccc(C)cc2)CC1c1cn(-c2ccccc2)nc1-c1cccc(Nc2ccnc3cc(Cl)ccc23)c1 (stereo not drawn)
system under test: U251 CNS
growth / %: 14.9

compound: Cc1ccc2nc(CN(CCN(Cc3nc4ccc(C)cc4[nH]3)Cc3nc4ccc(C)cc4[nH]3)Cc3nc4ccc(C)cc4[nH]3)[nH]c2c1
system under test: U251 CNS
growth / %: -94.1

compound: CNC(=O)c1ccccc1Sc1ccc2c(/C=C/c3ccccn3)n[nH]c2c1
system under test: U251 CNS
growth / %: 40.1

compound: CCOC(=O)c1ccc(NCCC(=O)O)cc1
system under test: U251 CNS
growth / %: 109

compound: COc1ccc2cc(-c3nc(C)c(C(C)=O)c(-c4ccc(C)cc4)n3)ccc2c1
system under test: U251 CNS
growth / %: 94.5

compound: CC1(C)C2CCC(O)(C(=O)O)C1C2 (stereo not drawn)
system under test: U251 CNS
growth / %: 113

compound: N#Cc1nc(-c2cccc(Br)c2)cc(-c2ccc(Nc3nc(N4CCCCC4)nc(N4CCCCC4)n3)cc2)c1N
system under test: U251 CNS
growth / %: -15.8

compound: CCOC(=O)C(=CNc1ccccc1Cl)C(=O)OCC
system under test: U251 CNS
growth / %: 94.5

compound: CCOC(C)(c1ccc(Cl)cc1)C1CCNCC1 (stereo not drawn)
system under test: U251 CNS
growth / %: 92.4

compound: COc1cc(C(=O)/C=C/c2cn(-c3ccccc3)nc2-c2cccc(Nc3ccnc4cc(Cl)ccc34)c2)cc(OC)c1OC
system under test: U251 CNS
growth / %: 88.1

compound: CC(C)(C)c1ccc(Cn2c(-c3nonc3N)nc3ccccc32)cc1
system under test: U251 CNS
growth / %: 64.5

compound: CC(C)NC(=O)OCC#CCOC(=O)NC(C)C
system under test: U251 CNS
growth / %: 99.5

compound: Cc1ccc(/C=C/C(=N/N=C(N)N)c2ccccc2)cc1
system under test: U251 CNS
growth / %: 13.4

compound: COc1ccc(-c2nc(-c3cc(OC)cc(OC)c3)[nH]c2-c2ccc(OC)cc2)cc1
system under test: U251 CNS
growth / %: 45.6

compound: COc1cc(-c2csc(NC(=O)Nc3cccc(C(F)(F)F)c3)n2)cc(OC)c1OC
system under test: U251 CNS
growth / %: 34.1

compound: Cc1nc2n[nH]c(N)c2nc1C
system under test: U251 CNS
growth / %: 107

compound: CC(C)COC(=O)NC(C)(C)C
system under test: U251 CNS
growth / %: 107

compound: CC1CCN(Cc2ccc(NC(=O)c3cc4ccc5cccnc5c4[nH]3)cc2)CC1
system under test: U251 CNS
growth / %: 14.7

compound: Fc1ccc(-c2nnc(N3CCOCC3)c3ccccc23)cc1
system under test: U251 CNS
growth / %: 108

compound: COc1ccc(/C=c2\c(=O)n(-c3ccccc3)c3nn4c(=O)c(=O)[nH]nc4n23)cc1
system under test: U251 CNS
growth / %: 112

compound: O=C1/C(=C\c2cccn2Cc2ccc(F)cc2)c2ccccc2N1c1c(Cl)cccc1Cl
system under test: U251 CNS
growth / %: 75.7

compound: COc1cc(Nc2ccnc3ccc(Br)cc23)cc(OC)c1OC
system under test: U251 CNS
growth / %: 18.6

compound: Cc1cc(C)cc(Nc2cc(C)nc3nc(C(F)(F)F)nn23)c1
system under test: U251 CNS
growth / %: 31.5

compound: COc1cc(Cn2c(-c3ccccc3)cc3c2-c2oncc2CC3)cc(OC)c1OC
system under test: U251 CNS
growth / %: 24.1

compound: COc1c(C(=O)/C=C/c2ccc(C)o2)c(O)cc2occc12
system under test: U251 CNS
growth / %: 75.4

compound: CCOC(=O)Nc1ccc2nc(-c3cscn3)[nH]c2c1
system under test: U251 CNS
growth / %: 35

----------
System: CCRF-CEM leukemia
method description: NCI-60 one-dose screen, 48 h (100 = growth as untreated, 0 = no growth, -100 = all killed)
applied conditions: 10 µM unless noted
Compounds without any hit were thinned out: in the full panel of roughly 83,000, 20% have a hit. Active and inactive are the calls of the source. Rule for the calls: active = growth percent below 10; inactive = the rest.

compound: CNC(=O)c1cc(Oc2ccc(NC(=O)c3nc(S(C)(=O)=O)n(C)c3-c3ccc(F)cc3)cc2)ccn1
system under test: CCRF-CEM leukemia
growth: 85% (inactive)
--
compound: Clc1cc(Br)ccc1-c1ccc(CNCC2CCNCC2)o1
system under test: CCRF-CEM leukemia
growth: 24% (inactive)
--
compound: O=C(NCCNC(=O)c1cc(S(=O)(=O)NCCc2ccccc2)c(O)c(O)c1O)c1cc(S(=O)(=O)NCCc2ccccc2)c(O)c(O)c1O
system under test: CCRF-CEM leukemia
growth: 45% (inactive)
--
compound: O=C(Oc1c(Cl)c(Cl)c(Cl)c(Cl)c1Cl)C1CCCN1C(=O)OCc1ccccc1 (stereo not drawn)
system under test: CCRF-CEM leukemia
growth: 10.8% (inactive)
--
compound: C=C(CN1CC=CCC1)[C@@H]1CC[C@]2(C(=O)OC)CC[C@]3(C)[C@H](CC[C@@H]4[C@@]5(C)CC[C@H](OC(C)=O)C(C)(C)[C@@H]5CC[C@]43C)[C@@H]12
system under test: CCRF-CEM leukemia
growth: 82.7% (inactive)
--
compound: FC(F)(F)c1ccc(/C=N/Nc2nnc3n2N=C(c2ccc(Cl)cc2)CS3)cc1
system under test: CCRF-CEM leukemia
growth: 99.4% (inactive)
--
compound: O=C1OCC2=C1C(c1cccc(Br)c1)c1cc3c(cc1N2CCO)OCCO3 (stereo not drawn)
system under test: CCRF-CEM leukemia
growth: 9.31% (active)
--
compound: CO[C@@]12[C@@H]3NC3CN1C1=C(C(=O)C(N)=C(C)C1=O)[C@@H]2COC(N)=O (stereo partly drawn)
system under test: CCRF-CEM leukemia
growth: 27.1% (inactive)
